Known Response (RU) of a selection of compounds
ASSAYED_SYSTEM: human thrombin (Homo sapiens)
ASSAY_SUMMARY: BIAcore (SPR) analysis of binding to immobilized thrombin
Set-up: Thrombin, also known as an active plasma coagulation factor II; purchased Sigma-Aldrich Chemical Co. (St. Louis, MO, USA) T7009
STATED_CONDITIONS: analyte 1,000 μM, thrombin immobilized on CM5 chip
Number in RU, nothing else.

The cases that follow already have their Response (RU) on record.
{"COMPOUND": "Oc1cc(O)c2c(c1)O[C@H](c1ccc(O)c(O)c1)[C@H](O)C2 [(−)-Epicatechin, (−)-epicatechin]", "PROPERTY_LABEL": "Response (RU)", "UNIT_STRING": "RU", "ENDPOINT_VALUE": 431}
{"COMPOUND": "Oc1cc(O)c2c(c1)O[C@H](c1ccc(O)c(O)c1)[C@@H](O)C2 [(+)-Catechin, (+)-catechin]", "PROPERTY_LABEL": "Response (RU)", "UNIT_STRING": "RU", "ENDPOINT_VALUE": 717}

Please find the next compound below.
Assay human thrombin (Homo sapiens), sample OC[C@H]1O[C@@H](Oc2cc3c(O[C@@H]4O[C@H](CO)[C@@H](O)[C@H](O)[C@H]4O)cc(O)cc3[o+]c2-c2ccc(O)c(O)c2)[C@H](O)[C@@H](O)[C@@H]1O [Cyanin, cyanin] , Response (RU) read: 827

====

ASSAYED_SYSTEM: human thrombin (Homo sapiens)
ASSAY_SUMMARY: Amidolytic activity of thrombin (hydrolysis of chromogenic substrate D-Phe-Pip-Arg-pNA)
Type: biochemical
Design: Thrombin, also known as an active plasma coagulation factor II; purchased Sigma-Aldrich Chemical Co. (St. Louis, MO, USA) T7009; host or cells: purified from human plasma
STATED_CONDITIONS: at 375 μM substrate concentration; compounds 0.1–1,000 μM, preincubation 10 min 37 °C; read-out: IC50, amidolytic activity of human thrombin
pIC50: −log10 of the molar value.
PROPERTY_LABEL: pIC50

{"COMPOUND": "COc1ccc([C@@H]2CC(=O)c3c(O)cc(O[C@@H]4O[C@H](CO[C@@H]5O[C@@H](C)[C@H](O)[C@@H](O)[C@H]5O)[C@@H](O)[C@H](O)[C@H]4O)cc3O2)cc1O", "ASSAYED_SYSTEM": "human thrombin (Homo sapiens)", "pIC50": "< 3.00"}
{"COMPOUND": "O=C(O)Cc1ccc(O)cc1 [4-Hydroxyphenylacetic acid, 4-hydroxyphenylacetic acid]", "ASSAYED_SYSTEM": "human thrombin (Homo sapiens)", "pIC50": "< 3.00"}

Please find the next compound below.
Assay human thrombin (Homo sapiens), sample `O=c1c(O)c(-c2ccc(O)c(O)c2)oc2cc(O)cc(O)c12` , pIC50 read: 5.82

====

ASSAYED_SYSTEM: human thrombin (Homo sapiens, UniProt P00734)
ASSAY_SUMMARY: Amidolytic activity of thrombin (hydrolysis of chromogenic substrate D-Phe-Pip-Arg-pNA)
Format: biochemical
Design: Thrombin, also known as an active plasma coagulation factor II; purchased Sigma-Aldrich Chemical Co. (St. Louis, MO, USA) T7009; host or cells: purified from human plasma
STATED_CONDITIONS: at 375 μM substrate concentration; compounds 0.1–1,000 μM, preincubation 10 min 37 °C; read-out: IC50, amidolytic activity of human thrombin
Known IC50 of a selection of compounds

{"COMPOUND": "O=C(O)/C=C/c1ccc(O)cc1 [Coumaric acid, coumaric acid]", "ASSAYED_SYSTEM": "human thrombin (Homo sapiens, UniProt P00734)", "PROPERTY_LABEL": "IC50", "ENDPOINT_VALUE": "> 1 mM"}
{"COMPOUND": "OC[C@H]1O[C@@H](Oc2cc3c(O[C@@H]4O[C@H](CO)[C@@H](O)[C@H](O)[C@H]4O)cc(O)cc3[o+]c2-c2ccc(O)c(O)c2)[C@H](O)[C@@H](O)[C@@H]1O [Cyanin, cyanin]", "ASSAYED_SYSTEM": "human thrombin (Homo sapiens, UniProt P00734)", "PROPERTY_LABEL": "IC50", "ENDPOINT_VALUE": "0.075 mM"}
{"COMPOUND": "Oc1cc(O)c2c(c1)O[C@H](c1ccc(O)c(O)c1)[C@H](O)[C@H]2c1c(O)cc(O)c2c1O[C@H](c1ccc(O)c(O)c1)[C@H](O)C2 [Procyanidin B2, procyanidin B2]", "ASSAYED_SYSTEM": "human thrombin (Homo sapiens, UniProt P00734)", "PROPERTY_LABEL": "IC50", "ENDPOINT_VALUE": "> 1 mM"}
{"COMPOUND": "O=C(/C=C/c1ccc(O)c(O)c1)O[C@@H]1C[C@](O)(C(=O)O)C[C@@H](O)[C@H]1O [Chlorogenic acid, chlorogenic acid]", "ASSAYED_SYSTEM": "human thrombin (Homo sapiens, UniProt P00734)", "PROPERTY_LABEL": "IC50", "ENDPOINT_VALUE": "> 1 mM"}
{"COMPOUND": "C[C@@H]1O[C@@H](OC[C@H]2O[C@@H](Oc3c(-c4ccc(O)c(O)c4)oc4cc(O)cc(O)c4c3=O)[C@H](O)[C@@H](O)[C@@H]2O)[C@H](O)[C@H](O)[C@H]1O [Rutin, rutin]", "ASSAYED_SYSTEM": "human thrombin (Homo sapiens, UniProt P00734)", "PROPERTY_LABEL": "IC50", "ENDPOINT_VALUE": "> 1 mM"}

Value of measured IC50 for the entry COc1cc(/C=C/C(=O)O)ccc1O [Ferulic acid, ferulic acid] : > 1 mM

Value of measured IC50 for the entry O=C(O)/C=C/c1ccc(O)c(O)c1 [Caffeic acid, caffeic acid] : > 1 mM

Value of measured IC50 for the entry C[C@@H]1O[C@@H](O[C@H]2[C@H](Oc3cc(O)c4c(c3)O[C@H](c3ccc(O)cc3)CC4=O)O[C@H](CO)[C@@H](O)[C@@H]2O)[C@H](O)[C@H](O)[C@H]1O [Naringin, naringin] : > 1 mM

Value of measured IC50 for the entry COc1cc(C2Oc3cc([C@H]4Oc5cc(O)cc(O)c5C(=O)[C@@H]4O)ccc3OC2CO)ccc1O (stereo in doubt) [Silybin, silybin] : 0.025 mM

Value of measured IC50 for the entry O=C1C[C@@H](c2ccc(O)cc2)Oc2cc(O)cc(O)c21 [Naringenin, naringenin] : > 1 mM

Value of measured IC50 for the entry Oc1cc(O)c2c(c1)O[C@H](c1ccc(O)c(O)c1)[C@@H](O)C2 [(+)-Catechin, (+)-catechin] : 0.125 mM

Value of measured IC50 for the entry Oc1cc(O)c2c(c1)O[C@H](c1ccc(O)c(O)c1)[C@H](O)C2 [(−)-Epicatechin, (−)-epicatechin] : 0.15 mM

Value of measured IC50 for the entry COc1ccc([C@@H]2CC(=O)c3c(O)cc(O)cc3O2)cc1O [Hesperetin, hesperetin] : > 1 mM

Value of measured IC50 for the entry Oc1ccc(/C=C/c2cc(O)cc(O)c2)cc1 [Resveratrol, resveratrol] : > 1 mM
